B1: TPR t1 (parent)
chain: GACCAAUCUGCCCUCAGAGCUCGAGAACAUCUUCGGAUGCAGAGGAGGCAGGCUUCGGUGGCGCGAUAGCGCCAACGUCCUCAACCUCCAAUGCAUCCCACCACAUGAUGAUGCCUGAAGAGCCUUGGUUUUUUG

# Variants of: B1
# Test Description: polymerase ribozyme fitness, log enrichment relative to wild type (log ratio); higher = more active; in vitro selection for triplet polymerase activity
Value Type: polymerase ribozyme fitness (log ratio)

The cases that follow already have their polymerase ribozyme fitness (log ratio) on record.
GACCAAUCUGCCCUCAGAGCUCGAGAACAUCUUCGGAUGCAGAGGAGGCAGGCUUCGGUGGCGCGAUAGCGCCAACGUCCUCGACCUCCAAUGCAUCCCACCACAUGAUGAUGCCUGAACAGCCUUGGUUUUUUG [A83G G120C]
0.655
GACCAAUCUGCUCUCAGAGCUCGAGAACAUCUUCGGAUGCAGAGGAGGGAGGCUUCGGUGCCGCGAUAGCGCCAACGUCCUCAACCUCCAAUGCAUCCCACCACAUGAUGAUGCCUGAAGAGCCUUGGUUUUUUG [C12U C49G G61C]
-1.89
GACCAAUCUGCCCUCAGAGCUCGAGAACAUCUUCGGAUGCAGAGGAGGCAGCCUUCGGUGGCGCGAUAGCGCCAACGUCCUCGACCUCCAAUGCAUCCCACCACAUGAUGAUGCCUGAAGAGCCUUGGUUUUUUG [G52C A83G]
-1.31
GACCAAUCUGCCCUCAGAGCUCGAGAACAUCUUCAGAUGCAGAGGAGGCAGGCUUCGGUGGCGCGAUACCGCCAACGUCCUCAACCGCCAAUGCAUCCCACCACAUGAUGAUGCCUGAAGAGCCUUGGUUUUUUG [G35A G69C U87G]
-5.37

Tell me the measured polymerase ribozyme fitness (log ratio) of GACCAAUCUGCCCUCAGAGCUCGAGAACAUCUUCGAAUGCAGAGGAGUCAGGCUUCGGUGGCUCGAUAGCGCCAACGUGCUCAACCUCCAAUGCAUCCCACCACAUGAUGAUGCCUGAAGAGCCUUGGUUUUUUG [G36A G48U G63U C79G] , please.
-5.18

Tell me the measured polymerase ribozyme fitness (log ratio) of GACCAAUCUGCCCUCAGAGCUCGAGAACAUCUUCGGAUGCAGAGGAGGCAGGUUUCGGCGGCGCGAUAGCGCCAACGUCCUCAACCUCAAAUGCAUCCCACCAUAUGAUGAUGCCUCAAGAGCCUUGUUUUUUUG [C53U U59C C89A C104U G117C G128U] , please.
-6.6

Tell me the measured polymerase ribozyme fitness (log ratio) of GACCAAUCUGCCCUCAGAGCUCGAGAACAUCUUCGGAUGCAGAGUAGGCAGACUUCGGUGGCGCGAUAGCGCCAACGUCCUCAACCUCCAAUGCAUCCCACCACAUGAUGAUGCUUGAAGAGCCUUGGUUUUUUU [G45U G52A C115U G135U] , please.
-4.62

Tell me the measured polymerase ribozyme fitness (log ratio) of GACCAAUCUGCCCUCUGAGAUCGAGAACAUCUUCGGAUGCAGAGGAGGCAGGCUUCGGUGGCGCGAUAGCGCGAACGUCCUCAACCUCCAAUGCAUCCCACCACAUGAUGAUGCCUUAUGAGCCUUGGUUUUUUG [A16U C20A C73G G117U A119U] , please.
-5.33

Tell me the measured polymerase ribozyme fitness (log ratio) of GACCAAUCUGCCCUCAGAGCUCGAGAACAUCUUCGGAUGCAGAGGAGGCAGGCUUCGGUGGCGCGAUAGCGCCAACGUCCUGAACCUCCAAUGCAUCCCACCACAUGAUGAUACCUGAAGAGCCUUGGUUUUUUG [C82G G113A] , please.
-1.04

Tell me the measured polymerase ribozyme fitness (log ratio) of GACCAAUCGGCGCUCAGAGCUCGAGAACAUCUUCGAAUGCAGAGGAGGCAGGCUUCGGUGGCGCGAUAGCGCCAACGUCCUCAACCUCCAAUGCAUCCCAGCACAUGAUGAUGCCUGAAGAGCCUUGGUUUUUUG [U9G C12G G36A C101G] , please.
-1.32
